Where do these numbers come from? They come from patent EP4725957A1.

Test system: Pseudomonas aeruginosa PAE19-3
Type: cell-based
Conditions: PAE19-3
Bridge positions count the residues as written; N and C are the ends. Square brackets hold non-standard residues; d marks the D form. Peptide text beside a SMILES is read from it. * marks the point of attachment. Nonanoyl = CCCCCCCCC(=O)*; X1 = CC[C@H](C)CCCCC(=O)*; Heptanoyl = CCCCCCC(=O)*; Orn = NCCC[C@H](N)C(=O)O; Dab = NCC[C@H](N)C(=O)O; Dap = NC[C@H](N)C(=O)O
Give measured MIC for each item. Keep answers brief.
The answer is to be given in µg/mL; state only the numeric part.

Q: Tell me the measured MIC of CCCCCCC(=O)N[C@@H](CCN)C(=O)N[C@H](C(=O)N[C@H](CO)C(=O)N[C@H]1CCNC(=O)[C@H]([C@@H](C)O)NC(=O)[C@H](CCN)NC(=O)[C@H](CCN)NC(=O)[C@H]([C@@H](C)O)NC(=O)[C@@H](Cc2ccccc2)NC(=O)[C@H](CN)NC1=O)[C@@H](C)O [Compound 64] (Heptanoyl-[Dab]T[dS][Dab][Dap][dF]T[Dab][Dab]T; lactam 4-C) , please.
Ans: 8

Q: Tell me the measured MIC of CC[C@H](C)CCCCC(=O)N[C@@H](CCN)C(=O)N[C@H](C(=O)N[C@H](CO)C(=O)N[C@H]1CCNC(=O)[C@H]([C@@H](C)O)NC(=O)[C@H](CCN)NC(=O)[C@H](CCCN)NC(=O)[C@H]([C@@H](C)O)NC(=O)[C@@H](Cc2ccccc2)NC(=O)[C@H](CCN)NC1=O)[C@@H](C)O [Compound 76] (X1-[Dab]T[dS][Dab][Dab][dF]T[Orn][Dab]T; lactam 4-C) , please.
Ans: 64

Q: Tell me the measured MIC of CCCCCCCCC(=O)N[C@@H](CCN)C(=O)N[C@H](C(=O)N[C@H](CO)C(=O)N[C@H]1CCNC(=O)[C@H]([C@@H](C)O)NC(=O)[C@H](CCN)NC(=O)[C@H](CCCN)NC(=O)[C@H]([C@@H](C)O)NC(=O)[C@@H](Cc2ccccc2)NC(=O)[C@H](CCN)NC1=O)[C@@H](C)O [Compound 80] (Nonanoyl-[Dab]T[dS][Dab][Dab][dF]T[Orn][Dab]T; lactam 4-C) , please.
Ans: 64

====

Tested on: Pseudomonas aeruginosa PAE19-3
Assay type: cell-based
Settings: PAE19-3
Bridge positions count the residues as written; N and C are the ends. Square brackets hold non-standard residues; d marks the D form. Peptide text beside a SMILES is read from it. * marks the point of attachment. Heptanoyl(6-Me) = CC(C)CCCCC(=O)*; Sulfomethyl = O=S(=O)(O)C*; dOrn = NCCC[C@@H](N)C(=O)O; Heptanoyl = CCCCCCC(=O)*; Dab = NCC[C@H](N)C(=O)O
PARAMETER: MIC
// unit must come after the numeric part

Q: Fill in the recorded MIC for this compound, with Pseudomonas aeruginosa PAE19-3 as test system: CC(C)CCCCC(=O)N[C@@H](CCN)C(=O)N[C@H](C(=O)N[C@@H](CCN)C(=O)N[C@H]1CCNC(=O)[C@H]([C@@H](C)O)NC(=O)[C@H](CCN)NC(=O)[C@H](CCN)NC(=O)[C@H]([C@@H](C)O)NC(=O)[C@@H](Cc2ccccc2)NC(=O)[C@H](CCN)NC1=O)[C@@H](C)O [Compound 17] ({Heptanoyl(6-Me)}-[Dab]T[Dab][Dab][Dab][dF]T[Dab][Dab]T; lactam 4-C)
Ans: 0.5 µg/mL

Q: Fill in the recorded MIC for this compound, with Pseudomonas aeruginosa PAE19-3 as test system: CC(C)CCCCC(=O)N[C@@H](CCN)C(=O)N[C@H](C(=O)N[C@H](CO)C(=O)N[C@H]1CCNC(=O)[C@H]([C@@H](C)OCS(=O)(=O)O)NC(=O)[C@H](CCN)NC(=O)[C@H](CCN)NC(=O)[C@H]([C@@H](C)O)NC(=O)[C@@H](Cc2ccccc2)NC(=O)[C@H](CCN)NC1=O)[C@@H](C)O [Compound 106] ({Heptanoyl(6-Me)}-[Dab]T[dS][Dab][Dab][dF]T[Dab][Dab]T(Sulfomethyl); lactam 4-C)
Ans: 0.25 µg/mL

Q: Fill in the recorded MIC for this compound, with Pseudomonas aeruginosa PAE19-3 as test system: CCCCCCC(=O)N[C@@H](CCN)C(=O)N[C@H](C(=O)N[C@H](CCCN)C(=O)N[C@H]1CCNC(=O)[C@H]([C@@H](C)O)NC(=O)[C@H](CCN)NC(=O)[C@H](CCN)NC(=O)[C@H]([C@@H](C)O)NC(=O)[C@@H](Cc2ccccc2)NC(=O)[C@H](CCN)NC1=O)[C@@H](C)O [Compound 24] (Heptanoyl-[Dab]T[dOrn][Dab][Dab][dF]T[Dab][Dab]T; lactam 4-C)
Ans: 2 µg/mL

====

System: Pseudomonas aeruginosa ATCC 27853
Type: cell-based
Conditions: ATCC 27853
Bridge positions count the residues as written; N and C are the ends. Square brackets hold non-standard residues; d marks the D form. Peptide text beside a SMILES is read from it. * marks the point of attachment. Heptanoyl(6-Me) = CC(C)CCCCC(=O)*; dOrn = NCCC[C@@H](N)C(=O)O; Nonanoyl = CCCCCCCCC(=O)*; X1 = CC[C@H](C)CCCCC(=O)*; dDap = NC[C@@H](N)C(=O)O; Dab = NCC[C@H](N)C(=O)O; Dap = NC[C@H](N)C(=O)O
Give measured MIC for each item. Keep answers brief.

Q: Fill in the recorded MIC for this compound, with Pseudomonas aeruginosa ATCC 27853 as test system: CC[C@H](C)CCCCC(=O)N[C@@H](CCN)C(=O)N[C@H](C(=O)N[C@H](CN)C(=O)N[C@H]1CCNC(=O)[C@H]([C@@H](C)O)NC(=O)[C@H](CCN)NC(=O)[C@H](CCN)NC(=O)[C@H]([C@@H](C)O)NC(=O)[C@H](Cc2ccccc2)NC(=O)[C@H](CCN)NC1=O)[C@@H](C)O [Compound 101] (X1-[Dab]T[dDap][Dab][Dab]FT[Dab][Dab]T; lactam 4-C)
Ans: >64 µg/mL

Q: Fill in the recorded MIC for this compound, with Pseudomonas aeruginosa ATCC 27853 as test system: CC(C)CCCCC(=O)N[C@@H](CCN)C(=O)N[C@H](C(=O)N[C@H](CO)C(=O)N[C@H]1CCNC(=O)[C@H]([C@@H](C)O)NC(=O)[C@H](CCN)NC(=O)[C@H](CN)NC(=O)[C@H]([C@@H](C)O)NC(=O)[C@@H](Cc2ccccc2)NC(=O)[C@H](CCN)NC1=O)[C@@H](C)O [Compound 72] ({Heptanoyl(6-Me)}-[Dab]T[dS][Dab][Dab][dF]T[Dap][Dab]T; lactam 4-C)
Ans: >64 µg/mL

Q: Fill in the recorded MIC for this compound, with Pseudomonas aeruginosa ATCC 27853 as test system: CCCCCCCCC(=O)N[C@@H](CCN)C(=O)N[C@H](C(=O)N[C@H](CCCN)C(=O)N[C@H]1CCNC(=O)[C@H]([C@@H](C)O)NC(=O)[C@H](CCN)NC(=O)[C@H](CCN)NC(=O)[C@H](CC(C)C)NC(=O)[C@@H](Cc2ccccc2)NC(=O)[C@H](CCN)NC1=O)[C@@H](C)O [Compound 45] (Nonanoyl-[Dab]T[dOrn][Dab][Dab][dF]L[Dab][Dab]T; lactam 4-C)
Ans: 0.5 µg/mL

====

Tested on: Acinetobacter baumannii ABA19-1
Type: cell-based
Conditions: ABA19-1
Bridge positions count the residues as written; N and C are the ends. Square brackets hold non-standard residues; d marks the D form. Peptide text beside a SMILES is read from it. * marks the point of attachment. Heptanoyl(6-Me) = CC(C)CCCCC(=O)*; X1 = CC[C@H](C)CCCCC(=O)*; Orn = NCCC[C@H](N)C(=O)O; Dab = NCC[C@H](N)C(=O)O
PARAMETER: MIC (µg/mL)
The answer is to be given in µg/mL; state only the numeric part.

Q: Tell me the measured MIC of CC[C@H](C)CCCCC(=O)N[C@@H](CCCN)C(=O)N[C@H](C(=O)N[C@H](CO)C(=O)N[C@H]1CCNC(=O)[C@H]([C@@H](C)O)NC(=O)[C@H](CCN)NC(=O)[C@H](CCN)NC(=O)[C@H]([C@@H](C)O)NC(=O)[C@@H](Cc2ccccc2)NC(=O)[C@H](CCN)NC1=O)[C@@H](C)O [Compound 56] (X1-[Orn]T[dS][Dab][Dab][dF]T[Dab][Dab]T; lactam 4-C) , please.
Ans: 0.25

Q: Tell me the measured MIC of CC(C)CCCCC(=O)N[C@@H](CCN)C(=O)N[C@H](C(=O)N[C@H](CO)C(=O)N[C@H]1CCNC(=O)[C@H]([C@@H](C)O)NC(=O)[C@H](CCN)NC(=O)[C@H](CCCN)NC(=O)[C@H]([C@@H](C)O)NC(=O)[C@@H](Cc2ccccc2)NC(=O)[C@H](CCN)NC1=O)[C@@H](C)O [Compound 77] ({Heptanoyl(6-Me)}-[Dab]T[dS][Dab][Dab][dF]T[Orn][Dab]T; lactam 4-C) , please.
Ans: 0.06
